PROCEDURE SUMMARY: Pharmacokinetic study in mice
CONDITIONS: C57BL/6, mouse, in vivo, po, 250 mg/kg, Peak plasma concentration (Cmax), mice, oral 250 mg/kg

| SMILES CODE | UNIT TEXT | Cmax |
| --- | --- | --- |
| O=c1oc2ccccc2c(O)c1C(c1ccc(Cl)cc1)c1c(O)c2ccccc2oc1=O | µg/mL | 197 |
| O=c1oc2ccccc2c(O)c1C(c1cccc(Cl)c1)c1c(O)c2ccccc2oc1=O | µg/mL | 68.9 |

---

PROCEDURE SUMMARY: Pharmacokinetic study in rats
CONDITIONS: Sprague Dawley, rat, in vivo, po, 250 mg/kg, Cmax, oral 250 mg/kg, mean ± SD

| SMILES CODE | Cmax (µg/mL) |
| --- | --- |
| O=c1oc2ccccc2c(O)c1C(c1ccc(Cl)cc1)c1c(O)c2ccccc2oc1=O | 133 |
| O=c1oc2ccccc2c(O)c1C(c1cccc(Cl)c1)c1c(O)c2ccccc2oc1=O | 80.7 |

All figures here come from paper PMC12305873.
